From: the supplement of paper PMC6555819

test system: THRa:RXRa (NR concentration 90 nM, RXRa partner concentration 90 nM); assay: PBM binding z-score (relative to random genomic background probes); higher = stronger binding; sequences stand for … in GC…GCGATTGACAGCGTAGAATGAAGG
# PBM binding z-score >= 4 gives Y, anything below gives N

# count of solved cases: 5
| macromolecule sequence | qualitative label |
| --- | --- |
| ATCGAAAGGTCATGAGGTGAGTATACAGAAAGGC | Y |
| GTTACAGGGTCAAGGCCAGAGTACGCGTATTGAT | N |
| TCGAGTAGGTCACGGGGGCATTCAGGGATGAAGA | Y |
| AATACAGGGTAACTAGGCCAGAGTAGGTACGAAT | N |
| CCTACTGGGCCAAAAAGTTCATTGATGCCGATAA | N |

query: Test whether the sequence `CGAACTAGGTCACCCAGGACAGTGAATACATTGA` records PBM binding z-score of 4 or higher.
result: N

query: Test whether the sequence `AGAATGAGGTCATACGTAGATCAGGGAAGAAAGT` records PBM binding z-score of 4 or higher.
result: Y

query: Test whether the sequence `AGAATGAGGTTAAGTTCAGGGAAACAGAATACAT` records PBM binding z-score of 4 or higher.
result: N

query: Test whether the sequence `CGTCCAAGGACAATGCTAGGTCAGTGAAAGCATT` records PBM binding z-score of 4 or higher.
result: N

query: Test whether the sequence `TCTAGTGGGTCAAAGGTCACACACTCGAAATGCG` records PBM binding z-score of 4 or higher.
result: Y

query: Test whether the sequence `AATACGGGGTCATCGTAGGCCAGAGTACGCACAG` records PBM binding z-score of 4 or higher.
result: Y

query: Test whether the sequence `CAAAATAGGTCACAGAGGTCAAAGTCCGTGCGTA` records PBM binding z-score of 4 or higher.
result: Y

query: Test whether the sequence `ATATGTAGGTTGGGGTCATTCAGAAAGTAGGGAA` records PBM binding z-score of 4 or higher.
result: Y

query: Test whether the sequence `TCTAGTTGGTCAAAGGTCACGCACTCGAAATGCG` records PBM binding z-score of 4 or higher.
result: Y
